These entries and their values trace back to ChEMBL document CHEMBL1145592.

Item-by-item account of log10 MIC
Tested on: Streptococcus pneumoniae
TEST_DESCRIPTION: Antibacterial activity against penicillin-susceptible Streptococcus pneumoniae 1
Format: functional
PARAMETER_MEASURED: log10 MIC (log10 of the value in µg/mL)

1. C=C[C@]1(C)C[C@@H](OC(=O)CSC2CCN(C(=O)CCn3cnc4c(N5CCCC5)nc(N)nc43)CC2)[C@]2(C)[C@H](C)CC[C@]3(CCC(=O)[C@@H]32)[C@@H](C)[C@@H]1O    -0.70
2. C=C[C@]1(C)C[C@@H](OC(=O)CSC2CCN(C(=O)CCn3cnc4c(N5CCOCC5)nc(N)nc43)CC2)[C@]2(C)[C@H](C)CC[C@]3(CCC(=O)[C@@H]32)[C@@H](C)[C@@H]1O    -1.00
3. C=C[C@]1(C)C[C@@H](OC(=O)CSC2CCN(C(=O)CCCn3cnc4cnc(N)nc43)CC2)[C@]2(C)[C@H](C)CC[C@]3(CCC(=O)[C@@H]32)[C@@H](C)[C@@H]1O    -0.11
4. C=C[C@]1(C)C[C@@H](OC(=O)CSC2CCN(C(=O)CCn3cnc4c(N)nc(N)nc43)CC2)[C@]2(C)[C@H](C)CC[C@]3(CCC(=O)[C@@H]32)[C@@H](C)[C@@H]1O    -1.60
5. C=C[C@]1(C)C[C@@H](OC(=O)CSC2CCN(C(=O)CCn3cnc4cnc(N)nc43)CC2)[C@]2(C)[C@H](C)CC[C@]3(CCC(=O)[C@@H]32)[C@@H](C)[C@@H]1O    -1.30
6. C=C[C@]1(C)C[C@@H](OC(=O)CSC2CCN(C(=O)CCn3cnc4ncncc43)CC2)[C@]2(C)[C@H](C)CC[C@]3(CCC(=O)[C@@H]32)[C@@H](C)[C@@H]1O    -1.00
7. C=C[C@]1(C)C[C@@H](OC(=O)CSC2CCN(C(=O)CCn3cnc4c(N5CCNCC5)nc(N)nc43)CC2)[C@]2(C)[C@H](C)CC[C@]3(CCC(=O)[C@@H]32)[C@@H](C)[C@@H]1O    -1.20
8. C=C[C@]1(C)C[C@@H](OC(=O)CSC2CCN(C(=O)CCn3cnc4cncnc43)CC2)[C@]2(C)[C@H](C)CC[C@]3(CCC(=O)[C@@H]32)[C@@H](C)[C@@H]1O    -1.00
9. C=C[C@]1(C)C[C@@H](OC(=O)CSC2CCN(C(=O)/C=C/n3cnc4cnc(N)nc43)CC2)[C@]2(C)[C@H](C)CC[C@]3(CCC(=O)[C@@H]32)[C@@H](C)[C@@H]1O    -0.41
